Value source: PubChem BioAssay (NCI)

# Test system: HOP-92 NSCLC
# TEST_METHOD_NOTES: NCI tumour cell line growth inhibition, 48 h
QUANTITY_KIND: TGI

In [3]: df
Out[3]:
                                   molecule  assayed_system    result
0  N.N.N.N.O=C([O-])CCl.O=C([O-])CCl.[Co+3].[O-][Cl+3]([O-])([O-])[O-]    HOP-92 NSCLC  > 100 µM
1  COc1cc(C2C3C=CC=C4CC=CC(=C43)C3CCC(=O)N32)cc(OC)c1OC (stereo not given)    HOP-92 NSCLC  > 100 µM
2  CC(C)(C)OC(=O)NC1CCCCC1NC(=O)C(=O)NC1CCCCC1NC(=O)OC(C)(C)C (stereo not given)    HOP-92 NSCLC     45 µM
3  CCOC(=O)NC(Nc1ccc(C)cc1)(C(F)(F)F)C(F)(F)F    HOP-92 NSCLC  > 100 µM
4         CCC(=O)CC(=O)CCC(=O)Nc1cc(C)ccc1C    HOP-92 NSCLC  > 100 µM
5  O=[N+]([O-])c1ccc2[nH]c(=S)[nH]c(=S)c2c1    HOP-92 NSCLC  > 100 µM
6  CO/N=C(\C)c1ccc(Nc2nc3ccccc3c3occc23)cc1    HOP-92 NSCLC   27.6 µM
7  CCCCCCCCCCCCCC(=O)OCC(C[As](=O)(O)O)OC(=O)CCCCCCCCCCCCC (stereo not given)    HOP-92 NSCLC  > 100 µM
8  CC(=O)N(C(C)=O)c1ncc(-n2nc(-c3ccccc3)cc2-c2ccccc2)c(-c2ccccc2)n1    HOP-92 NSCLC   > 10 µM
9    O=C(N/N=C(\c1ccccc1)c1ccccn1)NC1CCCCC1    HOP-92 NSCLC  > 100 µM

* * *

Reported TGI values for a set of molecules
# System: UACC-257 melanoma
# TEST_METHOD_NOTES: NCI tumour cell line growth inhibition, 48 h
QUANTITY_KIND: TGI

In [3]: df
Out[3]:
                                    molecule  quantity_kind     result
 0    N#Cc1c(N)nc(N2CCOCC2)c(C#N)c1-c1ccncc1            TGI   > 100 µM
 1  COc1cc(-c2oc(=O)ccc2C#Cc2ccccn2)cc(OC)c1OC            TGI  > 61.8 µM
 2   CC(=O)Nc1sc(Br)cc1S(=O)(=O)c1ccc(Cl)cc1            TGI   > 100 µM
 3  CC1(C)OC(C(=O)Nc2cc3c4ccccc4ccc3c3ccccc23)C(C(=O)N2CCCCC2)O1 (stereo not given)            TGI   > 100 µM
 4  COC(=O)C(C(=O)c1ccccc1)C(C(=O)C(=O)Nc1ccc(OC)cc1OC)C(=O)C(=O)c1ccc(C)cc1 (stereo not given)            TGI   > 100 µM
 5  CC(=O)OC1COC(Oc2c(C)c3c4c(c2O)[C@@H](C)CC[C@@H]4[C@@H](C)C[C@H]3C=C(C)C)C(O)C1OC(C)=O (stereo not given in full)            TGI    28.4 µM
 6  CCC12CCCN(Cc3ccccc3)C1c1c(n(C)c3ccccc13)CC2 (stereo not given)            TGI   > 253 µM
 7  CSC1=Nc2c(c(C)c(C)n2COC(CO)CO)C2=NC(=O)C(C)N12 (stereo not given)            TGI   > 100 µM
 8  Cc1cc(Cl)cc(OCCn2cc(F)cn2)c1-c1nc(N)nc2c1CN(C(=O)NCC(C)(F)F)C2            TGI   > 100 µM
 9     COc1ccc(Sc2[nH]c(C(C)=O)c3ccccc23)cc1            TGI    33.3 µM
10   COc1cc(Nc2nc3ccccc3nc2C(=O)O)cc(OC)c1OC            TGI   > 100 µM
11       Nc1ccc2c(c1)C(=O)N1CCC[C@H]1C(=O)N2            TGI   > 100 µM
12  O=[N+]([O-])c1cccc(C2=NN(c3ccccc3)C[N+](c3ccc(Br)cc3)=N2)c1            TGI   > 100 µM
13  CN(C)c1ccc(/C=c2/c3ccccc3n3c2c2c([n+]3C)CCCC2)cc1            TGI    2.88 µM
14  S=C(Nc1ccc(Cl)cc1)Nc1ccc(-c2nc3ccccc3s2)cc1            TGI    44.9 µM
15  NC(N)=NS(=O)(=O)c1ccc(NNc2c3ccccc3nc3c(C(=O)Nc4ccc(S(=O)(=O)Nc5ncccn5)cc4)cccc23)cc1            TGI   > 100 µM
16  Cc1ccc(SC2c3ccc(C)cc3Oc3nc(N)c(C#N)c(N)c32)cc1 (stereo not given)            TGI    3.22 µM
17  Nc1nn2cc(F)cnc2c1C(=O)Nc1cncc(F)c1N1CCC(C(=O)N2CCN(C3COC3)CC2)CC1            TGI  > 76.4 µM
18  CC1(C)S[C@@H]2[C@H](NC(=O)C3(N)CCCCC3)C(=O)N2[C@H]1C(=O)O            TGI   > 100 µM
19  CCn1c(-c2ccccc2)cs/c1=N\C(P(=O)(O)O)P(=O)(O)O            TGI   > 100 µM
